Target: chymotripsin (Bos taurus, UniProt P00766)
Assay: Chymotripsin inhibiting activity
Type: biochemical
Conditions: 0.5 h; compound 1×10^-4 mole, ATEE substrate, pH 8.0, 37° C.; read-out: Percent chymotripsin inhibition
Catalogue of molecules with associated inhibition at 100 µM
# answer = value followed by unit

molecule=O=C(CCc1ccccc1)COS(=O)(=O)c1ccc(Cl)cc1 reported_value=100%

Prompt: Given the molecule `CCCCCC(=O)COS(=O)(=O)c1c(C)c(C)cc(C)c1C` , what is its reported inhibition at 100 µM?
Completion: 13%

Prompt: What do you have for `CCOc1ccc(S(=O)(=O)OCC(=O)CCCC(=O)OC)cc1` ?
Completion: 33%

Prompt: What do you have for `Cc1ccc(S(=O)(=O)OCC(=O)CC2CCCCC2)cc1` ?
Completion: 98%

Prompt: What do you have for `CCCCCCC(=O)COS(=O)(=O)c1ccccc1` ?
Completion: 96%

Prompt: What do you have for `CCCC(=O)COS(=O)(=O)c1ccc2ccccc2c1` ?
Completion: 17%

Prompt: What do you have for `Cc1cc(C)c(S(=O)(=O)OCC(=O)CC2CCCCC2)c(C)c1` ?
Completion: 10%

Prompt: What do you have for O=C(CCC1CCCCC1)COS(=O)(=O)c1ccccc1 [Compound 164, 2-oxo-4-cyclohexyl-butylbenzenesulfonate] ?
Completion: 100%

Prompt: What do you have for `CCCCCCCCCCCC(=O)COS(=O)(=O)c1ccc(O)cc1` ?
Completion: 93%

Prompt: What do you have for CCCC(CC)C(=O)COS(=O)(=O)c1ccc(OCC)cc1 (centres unmarked) ?
Completion: 2%

Prompt: What do you have for CCC(C)CC(=O)COS(=O)(=O)c1c(C)cc(C)cc1C (centres unmarked) ?
Completion: 9%

###

Experiment: Acute toxicity
Settings: rat, in vivo; oral, six-week-old male Wistar rats, suspended in 30% aqueous polyethylene glycol 6000; read-out: LD50
assay-endpoint: LD50

The cases that follow already have their LD50 on record.
compound="CCCC(=O)COS(=O)(=O)c1ccc(C)cc1 [Compound 16, 2-oxopentyl-p-toluenesulfonate]" assay_endpoint=LD50 reported_value="> 1500 mg/kg"
compound="CCCC(=O)COS(=O)(=O)CC [Compound 1, 2-oxopentylethane sulfonate]" assay_endpoint=LD50 reported_value="> 1000 mg/kg"
compound="CCOc1ccc(S(=O)(=O)OCC(=O)CCC(CC)CC)cc1 [Compound 144]" assay_endpoint=LD50 reported_value="> 4000 mg/kg"
compound="CCCCCC(=O)COS(=O)(=O)c1ccc(OCCCC)cc1 [Compound 55]" assay_endpoint=LD50 reported_value="> 3000 mg/kg"
compound="CCCC(=O)COS(=O)(=O)c1ccc(OCC)cc1 [Compound 43]" assay_endpoint=LD50 reported_value="> 2000 mg/kg"

Prompt: Given the compound CCCCCCCCCC(=O)COS(=O)(=O)c1ccc(Cl)cc1 [Compound 68, 2-oxo-undecyl-p-chlorobenzene sulfonate] , what is its reported LD50?
Completion: > 3000 mg/kg

Prompt: What do you have for CCCCCCC(=O)COS(=O)(=O)c1ccc(OCC)cc1 [Compound 46, 2-oxooctyl-p-ethoxybenzene sulfonate] ?
Completion: > 3000 mg/kg

Prompt: What do you have for CCCCCCCCCCC(=O)COS(=O)(=O)c1c(C)c(C)cc(C)c1C [Compound 92] ?
Completion: > 3000 mg/kg

Prompt: What do you have for CCCCOc1ccc(S(=O)(=O)OCC(=O)CCC)cc1 [Compound 53] ?
Completion: > 2000 mg/kg

Prompt: What do you have for CCCC(=O)COS(=O)(=O)c1ccccc1 [Compound 6, 2-oxopentylbenzene sulfonate] ?
Completion: > 1000 mg/kg

Prompt: What do you have for CCCCCC(=O)COS(=O)(=O)c1ccc(OCC)cc1 [Compound 45, 2-oxoheptyl-p-ethoxybenzenesulfonate] ?
Completion: > 3000 mg/kg

Prompt: What do you have for CCCC(=O)COS(=O)(=O)c1c(C)cc(C)c(C)c1C [Compound 95] ?
Completion: > 3000 mg/kg

Prompt: What do you have for CCCCCCCC(=O)COS(=O)(=O)c1c(C)cc(C)cc1C [Compound 77] ?
Completion: > 4000 mg/kg
